- Test system: Beta-secretase 1 (Homo sapiens)
- Sequence (P56817 whole entry): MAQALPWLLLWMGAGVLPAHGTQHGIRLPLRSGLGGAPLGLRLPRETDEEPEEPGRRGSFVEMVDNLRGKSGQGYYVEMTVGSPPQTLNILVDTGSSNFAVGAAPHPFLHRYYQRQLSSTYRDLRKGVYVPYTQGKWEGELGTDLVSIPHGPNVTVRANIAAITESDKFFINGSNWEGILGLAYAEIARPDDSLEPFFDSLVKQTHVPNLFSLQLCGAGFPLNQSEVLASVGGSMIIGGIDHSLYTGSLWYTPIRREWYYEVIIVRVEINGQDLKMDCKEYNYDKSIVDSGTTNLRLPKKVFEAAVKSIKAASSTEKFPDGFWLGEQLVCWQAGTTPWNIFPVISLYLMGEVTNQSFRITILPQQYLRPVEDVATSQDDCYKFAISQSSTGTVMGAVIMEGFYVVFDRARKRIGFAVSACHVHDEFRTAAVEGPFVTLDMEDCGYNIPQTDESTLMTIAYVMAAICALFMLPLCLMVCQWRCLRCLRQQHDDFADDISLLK
pIC50: −log10 of the molar value. Where a SMILES comes first, the peptide text is derived from it. [ ]: non-standard residue; d: D form. Sta = CC(C)C[C@H](N)[C@@H](O)CC(=O)O
Experimental readout: pIC50

Examples with answers:
CSCC[C@H](NC(=O)[C@@H](NC(=O)OC(C)(C)C)C(C)C)C(=O)NC(CC(C)C)[C@@H](O)CC(=O)N[C@@H](C(=O)NCc1cccc(OCC(=O)O)c1)C(C)C (some centres undefined) ... 5.30
CSCC[C@H](NC(=O)[C@@H](NC(=O)OC(C)(C)C)C(C)C)C(=O)NC(CC(C)C)[C@@H](O)CC(=O)N[C@@H](C(=O)NCCC(=O)O)C(C)C (some centres undefined) ... 4.52
CSCC[C@H](NC(=O)[C@@H](NC(=O)OC(C)(C)C)C(C)C)C(=O)NC(CC(C)C)[C@@H](O)CC(=O)N[C@@H](C(=O)NCc1cccc(C(=O)O)c1)C(C)C (some centres undefined) ... 5.40
CC(C)CC(NC(=O)C(O)c1ccccc1Oc1ccccc1)[C@@H](O)CC(=O)N[C@@H](C(=O)N[C@H](C)C(=O)N[C@H](CCC(=O)O)C(=O)N[C@H](Cc1ccccc1)C(=O)O)C(C)C (some centres undefined) ... 4.85
COC(=O)[C@@H]1CC(NC(=O)[C@@H](NC(=O)C[C@H](O)[C@H](CC(C)C)NC(=O)C(O)c2cccc3ccccc23)C(C)C)C[C@H](C(=O)OC)C1 (some centres undefined) ... 3.85
CC(C)Cc1ccc(C(=O)NC(CC(C)C)[C@@H](O)CC(=O)N[C@@H](C(=O)N[C@H](C)C(=O)N[C@H](CCC(=O)O)C(=O)N[C@H](Cc2ccccc2)C(=O)O)C(C)C)cc1 (some centres undefined) ... 4.55

(1) CSCC[C@H](NC(=O)[C@@H](NC(C)=O)C(C)C)C(=O)N[C@@H](CC(C)C)[C@@H](O)CC(=O)N[C@H](C(=O)N[C@@H](C)C(=O)N[C@@H](CCC(=O)O)C(=O)N[C@@H](Cc1ccccc1)C(=O)O)C(C)C (Ac-VM[Sta]VAEF-OH)
(2) CC(C)CC(NC(=O)C(O)c1ccccc1OCc1ccccc1)[C@@H](O)CC(=O)N[C@@H](C(=O)N[C@H](C)C(=O)N[C@H](CCC(=O)O)C(=O)N[C@H](Cc1ccccc1)C(=O)O)C(C)C (some centres undefined)
(3) CC(C)C[C@H](NC(=O)C(O)c1cccc2ccccc12)[C@@H](O)CC(=O)N[C@H](C(=O)NCc1ccc(C(=O)O)cc1)C(C)C (some centres undefined)
(4) CC(C)CC(NC(=O)Cc1ccc(F)cc1F)[C@@H](O)CC(=O)N[C@@H](C(=O)N[C@H](C)C(=O)N[C@H](CCC(=O)O)C(=O)N[C@H](Cc1ccccc1)C(=O)O)C(C)C (some centres undefined)
Query string: Put these in order: smallest pIC50 first, largest last. Sort and list the labels as requested.
Result string: 4, 3, 2, 1
(4: 3.85, 3: 4.30, 2: 4.96, 1: 6.52)
